system: lacZ under control of the tetA promoter (PtetA) in E. coli KM3; format: cell-based; settings: Table 6, reverse repressor hits; rimsulfuron, same plate assay format (20 ppm)
Entries and their relative β-galactosidase activity, inducer Rs

# annotated cases, reported relative β-galactosidase activity, inducer Rs shown
molecule	experimentalResult
L1-25: library L1 hit with reverse repressor activity (SEQ ID NO: 1206-1213) (protein, rSuR L1-25) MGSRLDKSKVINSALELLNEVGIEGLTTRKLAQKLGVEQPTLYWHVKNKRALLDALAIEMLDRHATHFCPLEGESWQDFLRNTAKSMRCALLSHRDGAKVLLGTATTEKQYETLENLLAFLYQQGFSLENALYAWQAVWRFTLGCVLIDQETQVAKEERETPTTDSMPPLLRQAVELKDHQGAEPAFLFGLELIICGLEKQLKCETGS	1.08
L1-21: library L1 hit with reverse repressor activity (SEQ ID NO: 1206-1213) (protein, rSuR L1-21) MGSRLDKSKVINSALELLNEVGIEGLTTRKLAQKLGVEQPTLYWHVKNKRALLDALAIEMLDRHATHFCPLEGESWQDFLRNNAKSFRCALLSHRDGAKVCLGTAGTEKQYETLENCLAFLCQQGFSLENALYARSAVVCFTLGCVLFDQEMQVAKEERETPTTDSMPPLLRQAAELLDHQGAEPAFLFGLELIICGLEKQLKCESGS	2.31
L1-36: library L1 hit with reverse repressor activity (SEQ ID NO: 1206-1213) (protein, rSuR L1-36) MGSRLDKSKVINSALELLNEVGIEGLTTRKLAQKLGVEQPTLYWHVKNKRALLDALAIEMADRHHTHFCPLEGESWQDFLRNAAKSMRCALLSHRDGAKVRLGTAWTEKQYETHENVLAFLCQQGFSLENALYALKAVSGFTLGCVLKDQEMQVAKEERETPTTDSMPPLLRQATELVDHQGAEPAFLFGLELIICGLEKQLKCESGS	1.84
L1-39: library L1 hit with reverse repressor activity (SEQ ID NO: 1206-1213) (protein, rSuR L1-39) MGSRLDKSKVINSALELLNEVGIEGLTTRKLAQKLGVEQPTLYWHVKNKRALLDALAIEMMDRHQTHFCPLEGESWQDFLRNTAKSYRCALLSHRDGAKVILGTRWTEKQYETRENVLAFLCQQGFSLENALYAWAAVGPFTLGCVLRDQERQVAKEERETPTTDSMPPLLRQALELMDHQGAEPAFLFGLELIICGLEKQLKCESGS	4.72
L1-34: library L1 hit with reverse repressor activity (SEQ ID NO: 1206-1213) (protein, rSuR L1-34) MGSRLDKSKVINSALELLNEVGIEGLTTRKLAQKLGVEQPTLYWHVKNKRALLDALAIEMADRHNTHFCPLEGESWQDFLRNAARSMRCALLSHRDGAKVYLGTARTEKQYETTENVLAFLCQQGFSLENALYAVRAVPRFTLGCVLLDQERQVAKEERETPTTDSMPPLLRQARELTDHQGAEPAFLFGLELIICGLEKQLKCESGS	2.30

Query string: Record request: relative β-galactosidase activity, inducer Rs value, item L1-18: library L1 hit with reverse repressor activity (SEQ ID NO: 1206-1213) (protein, rSuR L1-18) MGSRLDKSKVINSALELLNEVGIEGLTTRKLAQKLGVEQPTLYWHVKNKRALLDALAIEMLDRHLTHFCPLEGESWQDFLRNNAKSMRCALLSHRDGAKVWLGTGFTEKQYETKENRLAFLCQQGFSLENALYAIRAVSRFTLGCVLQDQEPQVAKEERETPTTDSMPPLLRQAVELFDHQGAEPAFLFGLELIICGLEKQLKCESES
Result string: 2.55

Query string: Also need L1-41: library L1 hit with reverse repressor activity (SEQ ID NO: 1206-1213) (protein, rSuR L1-41) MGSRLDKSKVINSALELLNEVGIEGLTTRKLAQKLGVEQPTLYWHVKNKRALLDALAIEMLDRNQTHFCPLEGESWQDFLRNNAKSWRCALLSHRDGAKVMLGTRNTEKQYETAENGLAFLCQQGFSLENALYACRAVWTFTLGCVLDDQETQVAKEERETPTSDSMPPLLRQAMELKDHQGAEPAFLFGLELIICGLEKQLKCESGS , thanks.
Result string: 4.05

Query string: Also need L1-33: library L1 hit with reverse repressor activity (SEQ ID NO: 1206-1213) (protein, rSuR L1-33) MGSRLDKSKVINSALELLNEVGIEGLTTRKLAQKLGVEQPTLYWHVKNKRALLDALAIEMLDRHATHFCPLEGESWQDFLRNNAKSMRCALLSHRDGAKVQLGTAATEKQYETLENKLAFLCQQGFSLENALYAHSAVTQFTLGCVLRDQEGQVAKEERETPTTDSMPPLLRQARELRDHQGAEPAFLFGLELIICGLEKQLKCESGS , thanks.
Result string: 10.32

The origin of these recorded values is patent US9206432B2.
